parameter_measured: logP
// return a plain number; no unit text

Qu. Which measured logP value corresponds to COc1c2ccccc2cc2ccccc12 ?
Ans. 4.36

Qu. Which measured logP value corresponds to Cc1nc(C(Cl)(Cl)Cl)nc(C(Cl)(Cl)Cl)n1 ?
Ans. 3.78

Qu. Which measured logP value corresponds to c1cc2cc3ccc4c(c3nc2c2c1NCOC2)COCN4 ?
Ans. 2.17

Qu. Which measured logP value corresponds to O=C(O)CCCCON=C(c1ccccc1)c1ccncn1 ?
Ans. 2.27

Qu. Which measured logP value corresponds to O=C(O)CCCON=C(c1ccccc1)c1cncnc1 ?
Ans. 2.2

Qu. Which measured logP value corresponds to CCc1ccc(CNc2[nH]cnc3ncnc2-3)cc1 ?
Ans. 3.17

Qu. Which measured logP value corresponds to Nc1nnnn1-c1cccc(F)c1 ?
Ans. 0.91

Qu. Which measured logP value corresponds to c1cc2cc3c(cc2cn1)OCO3 ?
Ans. 1.75

Qu. Which measured logP value corresponds to COC(=O)CNC(=O)Cn1c(C)nc2ccccc2c1=O ?
Ans. 0.4

Qu. Which measured logP value corresponds to Nc1nnnn1-c1ccc(F)cc1 ?
Ans. 0.75

Qu. Which measured logP value corresponds to CCOC(=O)CCCn1cnc([N+](=O)[O-])n1 ?
Ans. 0.42

Qu. Which measured logP value corresponds to C[C@@H]1CN(c2c(F)c(N)c3c(=O)c(C(=O)O)cn(C4CC4)c3c2F)C[C@H](C)N1 ?
Ans. -0.02

Qu. Which measured logP value corresponds to COc1ccc(C2CC(=O)N(CCN(C)C)c3cccc(C(F)(F)F)c3C2)cc1 (centres undefined) ?
Ans. 5.1

Qu. Which measured logP value corresponds to COC1(OC)C(N2CCOCC2)=NC(=O)N1c1ccc(Cl)cc1 ?
Ans. 1.7

Qu. Which measured logP value corresponds to Cc1cccc(OCC2CN=C(N)O2)c1C (centres undefined) ?
Ans. 2.25

Qu. Which measured logP value corresponds to CCCN(CC)CC(=O)Nc1c(C)cccc1C ?
Ans. 2.74

Qu. Which measured logP value corresponds to Brc1c2ccccc2c(Br)c2ccccc12 ?
Ans. 6.29

Qu. Which measured logP value corresponds to Cn1c(N)nc2ncc(-c3ccccc3)cc21 ?
Ans. 2.23

Qu. Which measured logP value corresponds to Cc1c(O)c(=O)ccn1CCCOC(=O)c1ccccc1O ?
Ans. 1.4

Qu. Which measured logP value corresponds to COCC(O)Cn1c([N+](=O)[O-])nc(Br)c1Br (centres undefined) ?
Ans. 1.02

Qu. Which measured logP value corresponds to CCN(CC)CCSC(=NO)c1nc(Cc2ccccc2)no1 ?
Ans. 2.55

Qu. Which measured logP value corresponds to CCCCC(=O)C(CCCCOc1c(C)cc(C)cc1[N+](=O)[O-])n1cncn1 (centres undefined) ?
Ans. 3.9

Qu. Which measured logP value corresponds to CC(N)C(=O)N1CCCC1C(=O)O (centres undefined) ?
Ans. -2.71

Qu. Which measured logP value corresponds to NC(=O)C(N)Cc1c[nH]c2ccccc12 (centres undefined) ?
Ans. 0.3

Qu. Which measured logP value corresponds to CCCCNC(C)CO (centres undefined) ?
Ans. 1.19

Qu. Which measured logP value corresponds to CC#CC(=O)c1c(C)nc2c3c(c(C(=O)N(C)C)cn12)CCC(c1ccccc1)O3 (centres undefined) ?
Ans. 3.4

Qu. Which measured logP value corresponds to CN(C)C(c1ccccc1)c1ccccc1 ?
Ans. 3.37

Qu. Which measured logP value corresponds to COc1cc(OC)nc(Oc2cccc(Cl)c2C(=O)O)n1 ?
Ans. 2.23

Qu. Which measured logP value corresponds to OCCN1CCN(CCn2nc3ccccc3n2)CC1 ?
Ans. 0.43

---

Where a SMILES comes first, the peptide text is derived from it.
parameter_measured: logP
// return a plain number; no unit text

Qu. Which measured logP value corresponds to O=C(Cn1ncc([N+](=O)[O-])n1)NCCO ?
Ans. -0.82

Qu. Which measured logP value corresponds to O=C1C(NCCO)=C(N2CC2)C(=O)C(NCCO)=C1N1CC1 ?
Ans. -1.47

Qu. Which measured logP value corresponds to CCOC(=O)NNc1ccccc1 ?
Ans. 1.22

Qu. Which measured logP value corresponds to CCC1(c2ccncc2)CCC(=O)NC1=O (configuration not stated) ?
Ans. 0.58

Qu. Which measured logP value corresponds to CCOC(=O)c1c(O)c2ccc(Cl)cc2[nH]c1=O ?
Ans. 2.6

Qu. Which measured logP value corresponds to CCN(CC)CC(=O)NCC(=O)Nc1c(C)cccc1C ?
Ans. 2.2

Qu. Which measured logP value corresponds to COc1ccc(SC)cc1CNC1CCCNC1c1ccccc1 (configuration not stated) ?
Ans. 3.7

Qu. Which measured logP value corresponds to Cc1oc2nc3oc(=O)ccc3cc2c1C ?
Ans. 1.97

Qu. Which measured logP value corresponds to Cc1ccc(CO)c(C=NNC(=O)c2cccs2)c1O ?
Ans. 3.03

Qu. Which measured logP value corresponds to NCC(=O)NC(Cc1ccccc1)C(=O)NC(Cc1ccc(O)cc1)C(=O)O (stereo not drawn) (H-Gly-Phe-Tyr-OH; configuration not given here) ?
Ans. -1.96

Qu. Which measured logP value corresponds to O=c1cc(CCl)oc(Br)c1O ?
Ans. 1.08

Qu. Which measured logP value corresponds to Cc1ccc(CO)c(C=NNC(=O)c2ccco2)c1O ?
Ans. 2.67

Qu. Which measured logP value corresponds to CCOc1cc2ncnc(Nc3cccc(Cl)c3)c2cc1OCC ?
Ans. 4.31

Qu. Which measured logP value corresponds to CCN(CC)c1ccc(-n2c(C(F)(F)F)nn(C)c2=S)cc1 ?
Ans. 3.79

Qu. Which measured logP value corresponds to CCC(C)C(N)C(=O)NC(CO)C(=O)NC(CC(C)C)C(=O)O (stereo not drawn) (H-Ile-Ser-Leu-OH; configuration not given here) ?
Ans. -2.28

Qu. Which measured logP value corresponds to NC(Cc1ccccc1)C(=O)NC(Cc1ccccc1)C(=O)O (stereo not drawn) (H-Phe-Phe-OH; configuration not given here) ?
Ans. -0.85

Qu. Which measured logP value corresponds to CC(C)CC(NC(=O)C(C)NC(=O)C(C)NC(=O)C(C)NC(=O)C(N)Cc1ccccc1)C(=O)O (configuration not stated) (H-FAAAL-OH; configuration not given here) ?
Ans. -2.23

---

Where a SMILES comes first, the peptide text is derived from it.
I'd be grateful if you could share measured logP for these entries.
// return a plain number; no unit text

Qu. Which measured logP value corresponds to CCOC(=O)C1=C(C)NC(C)=C(C(=O)OC)C1c1ccc(OC)c(OC)c1 (stereo unspecified) ?
Ans. 3.6

Qu. Which measured logP value corresponds to COc1cc2c(Nc3cc(CC(=O)Nc4cccc(F)c4F)[nH]n3)ncnc2cc1OCCCN1CCCC1CO (stereo unspecified) ?
Ans. 3.6

Qu. Which measured logP value corresponds to Cc1cccc(C)c1Cc1ccccn1 ?
Ans. 3.48

Qu. Which measured logP value corresponds to COC1C(O)CC(=O)OC(C)CC=CC=CC(=O)C(C)CC(CC=O)C1OC1OC(C)C(OC2CC(C)(O)C(OC(=O)CC(C)C)C(C)O2)C(N(C)C)C1O (stereo unspecified) ?
Ans. 1.86

Qu. Which measured logP value corresponds to Cc1ccc(S(=O)(=O)C(=Cc2ccccc2)C(=O)OC(C)C)cc1 ?
Ans. 3.92

Qu. Which measured logP value corresponds to NC(Cc1ccccc1)C(=O)NC(Cc1ccccc1)C(=O)NCC(=O)NC(Cc1ccccc1)C(=O)O (stereo unspecified) (H-FFGF-OH; configuration not given here) ?
Ans. 0.17

Qu. Which measured logP value corresponds to Nc1nc(N)c2c(Cl)cccc2n1 ?
Ans. 1.72

Qu. Which measured logP value corresponds to O=C(Nc1ccccc1C(=O)O)c1ccccc1O ?
Ans. 3.94

Qu. Which measured logP value corresponds to COC(=O)c1cc2ccc3cccc4ccc(c1)c2c34 ?
Ans. 4.85

Qu. Which measured logP value corresponds to OC(CCNC1CCCCC1)COc1cccc2ccccc12 (stereo unspecified) ?
Ans. 3.99

Qu. Which measured logP value corresponds to O=C(NC1CCCCC1)NS(=O)(=O)c1cnccc1NC1CCCCCCC1 ?
Ans. 4.96

Qu. Which measured logP value corresponds to CS(=O)(=O)c1cccc2nc(N)nc(N)c12 ?
Ans. 0.63

Qu. Which measured logP value corresponds to Cc1cc(=O)[nH]nc1/C=C/c1ccc(-n2ccnc2)cc1 ?
Ans. 1.71

Qu. Which measured logP value corresponds to CS(=O)c1ccc2c(c1)C(c1ccccc1)=NCC(=O)N2 (stereo unspecified) ?
Ans. 0.8

Qu. Which measured logP value corresponds to COC(=O)C1=C(C)NC(C)=C(P2(=O)OCCCO2)C1c1ccccc1[N+](=O)[O-] (stereo unspecified) ?
Ans. 1.3

Qu. Which measured logP value corresponds to Cc1c[nH]c(Cc2ccc(OCC(O)CNC(C)(C)C)cc2)n1 (stereo unspecified) ?
Ans. 1.4

Qu. Which measured logP value corresponds to CS(=O)(=O)Nc1cccc(Cn2cnc3ccccc32)c1 ?
Ans. 2.08

Qu. Which measured logP value corresponds to O=C(O)Cc1cc(O)ccc1Nc1c(Cl)cccc1Cl ?
Ans. 3.94

Qu. Which measured logP value corresponds to CCS(=O)(=O)n1cc(-c2ccc(Cl)cc2)c(N2CCOCC2)c1C(=O)OC ?
Ans. 4.2

Qu. Which measured logP value corresponds to COc1cc(OC)nc(Oc2cccc(Oc3ccccc3)c2C(=O)O)n1 ?
Ans. 3.43

Qu. Which measured logP value corresponds to Cc1cc(=O)c(O)c(CNC(=O)C(C)C)n1C ?
Ans. -0.35
